target: T1, HA69 peptide on HLA DQB1*06:02/DQA1*01:02 (DQ0602) (human); test: activation reporter or marker
T1 peptide: AMERNAGSGIIISDT
assay-endpoint: binding result

Below are worked cases with known answers.
# binder, assay-endpoint, test-result
records = [
    ("…-1 (TCR) alpha TRAV38-2/DV8 TRAJ39 CDR3: CAYRSANNAGNMLTF beta TRBV6-5 TRBJ1-5 CDR3: CASRTSGGNQPQHF", "binding result", "no recognition"),
    ("TCR CATDSYNTDKLIF / CASSQGAGAQTYYGYTF (TCR) alpha TRAV17 TRAJ34 CDR3: CATDSYNTDKLIF beta TRBV4-3 TRBJ1-2 CDR3: CASSQGAGAQTYYGYTF", "binding result", "recognises"),
    ("TCR867 (TCR) alpha TRAV17 TRAJ34 CDR3: CATDAYNTDKLIF beta TRBV4-3 TRBJ1-3 CDR3: CASSQGRTASGNTIYF", "binding result", "recognises"),
    ("TCR CAGSSANQAGTALIF / CSARGGQGAPSPLHF (TCR) alpha TRAV35 TRAJ15 CDR3: CAGSSANQAGTALIF beta TRBV20-1 TRBJ1-6 CDR3: CSARGGQGAPSPLHF", "binding result", "recognises"),
    ("…-1 (TCR) alpha TRAV17 TRAJ54 CDR3: CATDAAGAQKLVF beta TRBV19 TRBJ2-1 CDR3: CASSILAGVYNEQFF", "binding result", "no recognition"),
    ("TCR CAGKENSGGSNYKLTF / CASRVQGARAEAFF (TCR) alpha TRAV25 TRAJ53 CDR3: CAGKENSGGSNYKLTF beta TRBV19 TRBJ1-1 CDR3: CASRVQGARAEAFF", "binding result", "recognises"),
]

Dear colleague, I am looking for the recorded binding result of the following binder: TCR CAASRGTSYDKVIF / CSVRGLYNEQFF (TCR) alpha TRAV13-1 TRAJ50 CDR3: CAASRGTSYDKVIF beta TRBV29-1 TRBJ2-1 CDR3: CSVRGLYNEQFF
recognises

Values from paper PMC9371724
